System: Raji cells
Test: Cell growth inhibition assay (CellTiter-Glo)
Assay type: cell-based
Details: Homo sapiens, 168 h, 7 days, estimated from four-parameter curve
pIC50: −log10 of the molar value.
observable: pIC50

[1] O=C(c1cc(Cc2n[nH]c(=O)c3ccccc23)ccc1F)N1CCN(C(=O)C2CC2)CC1
[2] CC(C)OC(=O)Nc1ccc(-c2cnc(C3CCC(NC(=O)OC(C)C)CC3)s2)c(S(=O)(=O)C2CC2)c1 (centres unmarked)
Incoming: Name the one with the greater pIC50 value, either 1 or 2 as given. # answer = label of selected item
Outgoing: 2

---

Test system: A549 cells
Test: Cell growth inhibition assay (CellTiter-Glo) and Bliss synergy analysis
Assay type: cell-based
Settings: Homo sapiens, A549, 168 h; 7 days, estimated from four-parameter curve
Procedure: Cells were seeded in opaque-walled 96-well microplates at appropriate densities according to the growth curves (data no shown). On the following day cells were dosed with compounds. After 7 days treatments, cells viability was measured by adding 30μL CellTiter-Glo reagent (Promega) and incubated for 10 min at RT. Luminescence was measured by Envision plate reader (Perkin Elmer). […]
observable: IC50 (µM)

[a] CC(C)OC(=O)Nc1ccc(-c2cnc(C3CCC(NC(=O)OC(C)C)CC3)s2)c(S(=O)(=O)C2CC2)c1 (centres unmarked)
[b] O=C(c1cc(Cc2n[nH]c(=O)c3ccccc23)ccc1F)N1CCN(C(=O)C2CC2)CC1
Incoming: Name the one with the greater IC50 value, either a or b as given. # answer = label of selected item
Outgoing: b

All values here come from paper PMC9136011.
